Run Description: HPLC/EC determination of daidzein and equol levels in blood serum and urine after the BLDG formula
Condition Notes: human, plasma, oral, unbound equol, Mean, Day 7, plasma; BLDG formula regimen equivalent to Example 1
Result Type: concentration at 7 day (ng/mL)
// return numeric value only (unit: ng/mL, not printed)

Q: For the molecule Oc1ccc([C@H]2COc3cc(O)ccc3C2)cc1 [S-equol] , give its reported concentration at 7 day.
Result: 127

====

Run Description: HPLC/EC determination of daidzein and equol levels in blood serum and urine after the BLDG formula
Condition Notes: human, plasma, oral, unbound equol, ng/ml I, Day 1, plasma; BLDG formula regimen equivalent to Example 1
Result Type: concentration at 1 day

Q: Return concentration at 1 day for the following compound: Oc1ccc([C@H]2COc3cc(O)ccc3C2)cc1
Result: 0 ng/mL
